This collection of values is drawn from patent US10760052B2.

Entries annotated with measured [35S]GTPγS binding, FLNA-Binding Compound as Agonist at 0.1 μM
# system.under.test: mu opiate receptor (MOR) (Rattus norvegicus, UniProt P33535)
# Construct: from tissue; host or cells: striatum (membrane preparation)
# Sequence (P33535 whole entry): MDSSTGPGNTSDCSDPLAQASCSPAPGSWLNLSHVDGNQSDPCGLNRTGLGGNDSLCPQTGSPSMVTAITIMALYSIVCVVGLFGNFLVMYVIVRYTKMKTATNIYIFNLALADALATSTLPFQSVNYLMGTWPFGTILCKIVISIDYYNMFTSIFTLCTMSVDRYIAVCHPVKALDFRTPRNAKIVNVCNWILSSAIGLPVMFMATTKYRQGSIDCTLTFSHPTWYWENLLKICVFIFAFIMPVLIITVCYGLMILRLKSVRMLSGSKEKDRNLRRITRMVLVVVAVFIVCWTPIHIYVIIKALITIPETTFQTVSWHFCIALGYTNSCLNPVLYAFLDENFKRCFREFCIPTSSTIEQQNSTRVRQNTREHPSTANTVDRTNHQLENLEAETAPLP
# Assay type: biochemical
# condition.set: 0.1 μM compound; striatal membranes; Series C-2
# Procedure: To assess the mu opiate receptor (MOR) agonist activity of positive compounds from the FLNA screening, compounds were tested in a [^35S]GTPγS binding assay using striatal membranes. […] The immunocomplexes so formed were collected by incubation at 25° C. for 30 minutes with 40 μl of agarose-conjugated protein A/G beads and centrifugation at 5,000×g at 4° C. for 5 minutes. […] The radioactivity in the suspension was determined by liquid scintillation spectrometry.
Field: numeric (%). Do not append units.

Examples with answers:
INSERT INTO results (molecule, number) VALUES
  ('CC(=O)c1ccc(S(=O)(=O)N2CCOC23CCN(C)CC3)cc1 [Compound C0093M]', 140.0),
  ('O=S(=O)(c1ccccc1Oc1ccccc1)N1CCC2(CC1)NCCO2 [Compound C0149M-2]', 209.8);

Shift focus to the following entry.
Challenge: I have this molecule here, COc1ccc(S(=O)(=O)N2CCOC23CCCNC3)cc1 (stereo not drawn) [Compound C0145M-3] , and I need its recorded [35S]GTPγS binding, FLNA-Binding Compound as Agonist at 0.1 μM.
Response given: 193.0
